Measured values drawn from patent US20220220218A1 for this set.

Target: T1, human CD73 (huCD73) protein, antigen of the Biacore assay (human, UniProt P21589 27-547, limits assumed)
T1 construct: also called human CD73 antigen
T1 sequence (looked up): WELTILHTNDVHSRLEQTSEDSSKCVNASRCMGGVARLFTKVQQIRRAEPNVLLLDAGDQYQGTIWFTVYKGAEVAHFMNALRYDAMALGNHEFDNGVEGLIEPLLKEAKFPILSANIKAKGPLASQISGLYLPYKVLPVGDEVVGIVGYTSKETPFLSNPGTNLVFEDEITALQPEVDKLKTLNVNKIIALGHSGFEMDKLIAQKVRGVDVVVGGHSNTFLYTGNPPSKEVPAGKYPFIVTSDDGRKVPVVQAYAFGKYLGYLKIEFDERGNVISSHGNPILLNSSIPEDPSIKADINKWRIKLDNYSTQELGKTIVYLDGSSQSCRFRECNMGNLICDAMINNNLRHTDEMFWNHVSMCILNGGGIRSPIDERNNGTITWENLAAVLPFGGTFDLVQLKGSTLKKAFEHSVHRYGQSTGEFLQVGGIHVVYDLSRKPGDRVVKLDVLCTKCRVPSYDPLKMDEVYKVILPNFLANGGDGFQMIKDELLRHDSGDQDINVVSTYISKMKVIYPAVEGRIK
Assay: SPR Biacore T200; antibody captured on Protein A chip, CD73 in flow; 1:1 Langmuir
measured.quantity: koff

>>> result_value("CH110 (antibody, V domains shown, also called chimeric antibody of mab110) VH: QVQLQQSGAELARPGASVQMSCKASGYIFTSYTMHWVKQRPGQGLEWIGYINPNSFYIEYNQKFKDKATLTADTSSSTAYMQLSSLTSEDSAVYYCARGDYDLFYDMDNWGQGTSVTVSS VL: DIQMTQSPSSLSASLGERVSLTCRASQDIGNSLNWLQQEPDGTIKRLIYATFRLDSGVPKRFSGSRSGSDYSLTISSLESEDFVDYYCQQYASFPWTFGGGTKLEIK")
"0.000147 s⁻¹"
>>> result_value("Hab127.31d (antibody, human IgG1, kappa, V domains shown, also called humanized antibody of mab127) VH: EVQLVQSGAEVKKPGASVKVSCKASGYTFTAYFMNWVRQAPGQGLEWMGRIYHNKGDTFYSQKFKGRVTMTVDKSTSTVYMELSSLRSEDTAVYYCATSYVGDWGQGTTVTVSS VL: DIQMTQSPSSLSASVGDRVTITCRASQDIGDSLNWLQQKPGGALKRLIYATSSLDSGVPSRFSGSGSGTEYTLTISSLQPEDFATYYCLQYASFPWTFGGGTKVEIKR")
"5.81e-05 s⁻¹"
>>> result_value("Hab108.33 (antibody, V domains shown, VL3 + VH3; full-length antibody) VH: EVTLKESGPVLVKPTETLTLTCTVSGFSLSSYGIQWVRQPPGKLLEWLGVIWSGGSADYNAAFISRLTISKDTSKSQVVLTMTNMDPVDTATYYCAGQYGSVWGQGTLVTVSS VL: DIQMTQSPSSLSASVGDRVTITCRASQDIGDRLNWLQQKPGGAIKRLIYATSSLDSGVPSRFSGSGSGTEYTLTISSLQPEDFATYYCLQYAGSWTFGGGTKVEIK")
"0.000123 s⁻¹"
>>> result_value("Hab110.31 (antibody, V domains shown, VL3 + VH1; recombined with human heavy and light constant regions) VH: EVQLVQSGAEVKKPGASVKVSCKASGYTFTSYTMHWVRQAPGQRLEWMGYINPNSFYIEYNQKFKDRVTITRDTSASTAYMELSSLRSEDTAVYYCARGDYDLFYDMDNWGQGTTVTVSS VL: DIQMTQSPSSLSASVGDRVTITCRASQDIGNSLNWLQQKPGGAIKRLIYATFRLDSGVPSRFSGSRSGTEYTLTISSLQPEDFADYYCQQYASFPWTFGGGTKVEIK")
"5.86e-05 s⁻¹"
>>> result_value("Hab127.31h (antibody, V domains shown, VL3 + VH1h, HCDR2 hot-spot variant; full-length antibody) VH: EVQLVQSGAEVKKPGASVKVSCKASGYTFTAYFMNWVRQAPGQGLEWMGRIYHLNVDTFYSQKFKGRVTMTVDKSTSTVYMELSSLRSEDTAVYYCATSYVGDWGQGTTVTVSS VL: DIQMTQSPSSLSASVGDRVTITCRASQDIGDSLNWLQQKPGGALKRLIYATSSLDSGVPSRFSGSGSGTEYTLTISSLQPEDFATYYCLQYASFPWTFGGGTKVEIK")
"6.66e-05 s⁻¹"
>>> result_value("Hab127.13 (antibody, V domains shown, VL1 + VH3; recombined with human heavy and light constant regions) VH: EVQLVQSGAEVKKPGASVKVSCKASGYTFTAYFMNWVMQAPGQGLEWIGRIYHNNGDTFYSQKFKGRATLTVDKSTSTVYMELSSLRSEDTAVYYCATSYVGDWGQGTTVTVSS VL: DIQMTQSPSSLSASVGDRVTITCRASQDIGDSLNWYQQKPGKAPKRLIYATSSLDSGVPSRFSGSGSGTEFTLTISSLQPEDFATYYCLQYASFPWTFGGGTKVEIK")
"0.000119 s⁻¹"
>>> result_value("Hab127.31c (antibody, V domains shown, VL3 + VH1c, HCDR2 hot-spot variant; full-length antibody) VH: EVQLVQSGAEVKKPGASVKVSCKASGYTFTAYFMNWVRQAPGQGLEWMGRIYHNTGDTFYSQKFKGRVTMTVDKSTSTVYMELSSLRSEDTAVYYCATSYVGDWGQGTTVTVSS VL: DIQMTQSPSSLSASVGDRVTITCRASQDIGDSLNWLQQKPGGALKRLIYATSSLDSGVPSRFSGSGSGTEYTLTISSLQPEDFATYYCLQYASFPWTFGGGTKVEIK")
"4.76e-05 s⁻¹"
>>> result_value("Hab127.31a (antibody, V domains shown, VL3 + VH1a, HCDR2 hot-spot variant; full-length antibody) VH: EVQLVQSGAEVKKPGASVKVSCKASGYTFTAYFMNWVRQAPGQGLEWMGRIYHNQGDTFYSQKFKGRVTMTVDKSTSTVYMELSSLRSEDTAVYYCATSYVGDWGQGTTVTVSS VL: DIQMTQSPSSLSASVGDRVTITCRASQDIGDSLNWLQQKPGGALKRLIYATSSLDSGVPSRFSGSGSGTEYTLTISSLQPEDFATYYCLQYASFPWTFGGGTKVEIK")
"4.8e-05 s⁻¹"
>>> result_value("Hab127.22 (antibody, V domains shown, VL2 + VH2; recombined with human heavy and light constant regions) VH: EVQLVQSGAEVKKPGASVKVSCKASGYTFTAYFMNWVMQAPGQGLEWMGRIYHNNGDTFYSQKFKGRVTMTVDKSTSTVYMELSSLRSEDTAVYYCATSYVGDWGQGTTVTVSS VL: DIQMTQSPSSLSASVGDRVTITCRASQDIGDSLNWLQQKPGKAPKRLIYATSSLDSGVPSRFSGSGSGTEYTLTISSLQPEDFATYYCLQYASFPWTFGGGTKVEIK")
"4.86e-05 s⁻¹"
>>> result_value("Hab127.21 (antibody, V domains shown, VL2 + VH1; recombined with human heavy and light constant regions) VH: EVQLVQSGAEVKKPGASVKVSCKASGYTFTAYFMNWVRQAPGQGLEWMGRIYHNNGDTFYSQKFKGRVTMTVDKSTSTVYMELSSLRSEDTAVYYCATSYVGDWGQGTTVTVSS VL: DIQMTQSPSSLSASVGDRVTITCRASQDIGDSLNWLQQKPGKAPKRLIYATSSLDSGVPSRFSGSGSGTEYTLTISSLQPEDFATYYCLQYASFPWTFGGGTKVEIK")
"5.4e-05 s⁻¹"
